# TARGET: 4-HPPD (Rattus norvegicus)
# Construct: from tissue; host or cells: liver cytosol of a male Wistar rat
# Sequence (P32755 whole entry): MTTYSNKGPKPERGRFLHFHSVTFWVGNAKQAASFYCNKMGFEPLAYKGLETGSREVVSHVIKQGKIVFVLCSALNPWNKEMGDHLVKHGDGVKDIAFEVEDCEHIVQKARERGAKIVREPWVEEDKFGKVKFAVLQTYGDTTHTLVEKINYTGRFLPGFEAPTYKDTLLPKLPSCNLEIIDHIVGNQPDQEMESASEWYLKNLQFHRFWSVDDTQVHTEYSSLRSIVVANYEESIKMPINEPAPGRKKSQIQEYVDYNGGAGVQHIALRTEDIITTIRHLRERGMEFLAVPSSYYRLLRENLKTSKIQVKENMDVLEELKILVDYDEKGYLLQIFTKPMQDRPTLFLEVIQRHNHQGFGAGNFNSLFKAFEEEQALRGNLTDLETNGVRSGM
# PROTOCOL DETAILS: Determination of 4-HPPD activity by oxygen consumption (SDR SensorDish Reader) in rat liver cytosol
# Assay type: biochemical, male Wistar rat
# CONDITION PARAMETERS: rat liver cytosol, oxygen consumption; read-out: IC50
Listing: log10(IC50) of selected molecules
TEST READOUT: log10(IC50) (log10 of the value in nM)

>  <MOLECULE>
CC1(C)C(Cl)C(=O)C(C(=O)c2ccccc2)C(=O)C1Cl (centres unmarked)

>  <TARGET>
4-HPPD (Rattus norvegicus)

>  <log10(IC50)>
2.28

$$$$
>  <MOLECULE>
CC1(C)CC(=O)C(C(=O)c2ccc(C(F)(F)F)cc2Cl)C(=O)C1

>  <TARGET>
4-HPPD (Rattus norvegicus)

>  <log10(IC50)>
4.02

$$$$
>  <MOLECULE>
CS(=O)(=O)c1ccc(C(=O)C2C(=O)C(O)CC(O)C2=O)c(Cl)c1COCC(F)(F)F (centres unmarked)

>  <TARGET>
4-HPPD (Rattus norvegicus)

>  <log10(IC50)>
2.36

$$$$
>  <MOLECULE>
Cc1cc(C2C(=O)C(C(=O)c3ccc(Cl)cc3)C(=O)CC2(C)C)on1 (centres unmarked)

>  <TARGET>
4-HPPD (Rattus norvegicus)

>  <log10(IC50)>
4.78

$$$$
>  <MOLECULE>
CS(=O)(=O)c1ccc(C(=O)C2C(=O)CCCC2=O)c(Cl)c1COCC(F)(F)F

>  <TARGET>
4-HPPD (Rattus norvegicus)

>  <log10(IC50)>
2.18

$$$$
>  <MOLECULE>
O=C1CCC(c2ccccc2)C(=O)C1C(=O)c1ccc(Cl)cc1Cl (centres unmarked)

>  <TARGET>
4-HPPD (Rattus norvegicus)

>  <log10(IC50)>
2.45

$$$$
>  <MOLECULE>
CC1(C)CC(=O)C(C(=O)c2ccc([N+](=O)[O-])cc2Cl)C(=O)C1

>  <TARGET>
4-HPPD (Rattus norvegicus)

>  <log10(IC50)>
1.56

$$$$
>  <MOLECULE>
CS(=O)(=O)c1ccc(C(=O)C2C(=O)CCCC2=O)c([N+](=O)[O-])c1

>  <TARGET>
4-HPPD (Rattus norvegicus)

>  <log10(IC50)>
1.56

$$$$
